- Test system: OVCAR-5 ovarian
- assay: NCI tumour cell line growth inhibition, 48 h
Where a SMILES comes first, the peptide text is derived from it.
property measured: TGI

Below are worked cases with known answers.
CN1/C(=C\N=O)C(C)(C)N(O)C1(C)C ... > 100 µM
C1=C2C3=[N+](CCCC3)CC2Cc2sccc21 (stereo not drawn) ... > 100 µM
O=C(NC1CCCCC1)NC12CC3CC(CC(F)(C3)C1)C2 ... > 100 µM
CO/S(=N/S(=O)(=O)c1ccccc1)c1ccccc1[N+](=O)[O-] (stereo not drawn) ... > 100 µM
Nc1ccc2nc3n(c2c1)C(c1c(F)cccc1F)SC3 (stereo not drawn) ... > 100 µM

[in] Tell me the measured TGI of Oc1cccc2ccc(SSc3ccc4cccc(O)c4n3)nc12 , please.
[out] 41.4 µM

[in] Tell me the measured TGI of CC(=O)NC(CS)C(=O)NC(CO)C(=O)NC(CO)C(=O)NC(Cc1c[nH]c2ccccc12)C(=O)N1CCCC1C(=O)NC(CO)C(=O)NC(Cc1c[nH]c2ccccc12)C(=O)NC(Cc1c[nH]cn1)C(=O)NC(CO)C(=O)NC(Cc1c[nH]c2ccccc12)C(=O)NCC(=O)NCC(=O)NC(C)C(=O)NC(CCC(N)=O)C(=O)NC(CCCCN)C(=O)NC(C)C(=O)NC(CCCNC(=N)N)C(=O)NC(CCCCN)C(N)=O (stereo not drawn) (Ac-CSSWPSWHSWGGAQKARK-NH2; configuration not given here) , please.
[out] > 50 µM

[in] Tell me the measured TGI of Cc1cc(C)n(CN(CCCCO)Cn2nc(C)cc2C)n1 , please.
[out] 51.1 µM

* * *

GI50 values, listed per item
- System: U251 CNS

[in] For the record Cn1cnc(SC2=CC(=O)C=C3S[C@H]4C[C@@]23c2c(c(O)c3c5c2=NCCC=5C=N3)N4)c1CC(N)C(=O)O (stereo partly drawn) , what value of GI50 is listed for U251 CNS?
[out] 18.1 µM

[in] For the record COc1cc(/C=C2\C(=O)Nc3ccc(Cl)cc32)cc(OC)c1OC , what value of GI50 is listed for U251 CNS?
[out] 13.1 µM

* * *

- Tested on: NCI-H522 lung
- assay: NCI tumour cell line growth inhibition, 48 h
property measured: GI50

Below are worked cases with known answers.
CN1C(c2ccccc2)CC(=NO)CC1c1ccccc1 (stereo unspecified) ... 39.7 µM
CCC(CO)Nc1nc(NCc2ccccc2)c2n[nH]c(C(C)C)c2n1 (stereo unspecified) ... 14.5 µM
CO[C@H]1/C=C/O[C@@]2(C)Oc3c(C)c(O)c4c(O)c(c(/C=N/N5C(C)CN(Cc6ccc(C#N)cc6)CC5C)c(O)c4c3C2=O)NC(=O)/C(C)=C\C=C\[C@H](C)[C@H](O)[C@@H](C)[C@@H](O)[C@@H](C)[C@H](OC(C)=O)[C@@H]1C (stereo partly specified) ... 6.22 µM
COc1cc(/C=C2\C[C@H]3[C@@H]4CC=C5C[C@@H](O)CC[C@]5(C)[C@H]4CC[C@]3(C)[C@H]2O)ccc1OCCN1CCCCC1 ... 1.6 µM
O=c1cc(-c2ccccc2)oc2c(O)c(O)ccc12 ... 8.27 µM

[in] Tell me the measured GI50 of O=C1/C(=C/c2ccc(Cl)cc2)N=C(c2ccccc2)N1c1cc(C(F)(F)F)ccc1Cl , please.
[out] 20.1 µM

* * *

- Tested on: TK-10 renal
- assay: NCI tumour cell line growth inhibition, 48 h
GI50 values, listed per item

CCCCNC(=O)Oc1ccc(/C(=C(\C)c2ccc(OC)cc2)c2ccc(OCCN3CCCCC3)cc2)cc1 ... 9.41 µM
COc1ccc2c(c1)/C(=C\c1c(-c3ccccc3)nc3sccn13)C(=O)N2 ... > 23.4 µM
O=C(N/N=C\c1ccc(N(CCCl)CCCl)cc1)c1cccnc1 ... 33.4 µM

[in] Tell me the measured GI50 of O=C1/C(=C/c2ccc(Cl)cc2)N=C(c2ccccc2)N1c1cc(C(F)(F)F)ccc1Cl , please.
[out] 31.7 µM

[in] Tell me the measured GI50 of COc1ccc2cc(C(=O)N3CCC([C@@H](C)C(=O)NCc4ccc5c(c4)OCO5)CC3)[nH]c2c1 , please.
[out] > 100 µM

* * *

- Tested on: HCT-15 colon
- assay: NCI tumour cell line growth inhibition, 48 h; in the data active = GI50 below about 0.43 µM; inactive = the rest
Please answer using one outcome listed in active, inactive

CC1(C)CC[C@]2(C(=O)NCCNCCN)CC[C@]3(C)C(=CC[C@@H]4[C@@]5(C)CCC(=O)C(C)(C)[C@@H]5CC[C@]43C)[C@@H]2C1 ... inactive

[in] // param item: COc1cc(/C=C/C(=O)c2ccccc2O)ccc1OCCCOc1cc2c(cc1OC)C(=O)N1CCC[C@H]1C=N2 ; yields the recorded call
[out] active

[in] // param item: Cn1cnc(SC2=CC(=O)C=C3S[C@H]4C[C@@]23c2c(c(O)c3c5c2=NCCC=5C=N3)N4)c1CC(N)C(=O)O (stereo partly drawn) ; yields the recorded call
[out] inactive

[in] // param item: O=C(N/N=C\c1ccc(N(CCCl)CCCl)cc1)c1cccnc1 ; yields the recorded call
[out] inactive

[in] // param item: CCCCNC(=O)Oc1ccc(/C(=C(\C)c2ccc(OC)cc2)c2ccc(OCCN3CCCCC3)cc2)cc1 ; yields the recorded call
[out] inactive

[in] // param item: COc1ccc(-c2c(NC(=O)Nc3ccc(Cl)c(C(F)(F)F)c3)cnn2-c2ccc(S(N)(=O)=O)cc2)cc1 ; yields the recorded call
[out] inactive

[in] // param item: CCC(CO)Nc1nc(NCc2ccccc2)c2n[nH]c(C(C)C)c2n1 (stereo not drawn) ; yields the recorded call
[out] inactive

[in] // param item: COc1cc(-c2n/c(=C\c3c(O)[nH]c4ccccc34)cc3c2=Nc2ccccc2-3)ccc1F ; yields the recorded call
[out] inactive

* * *

GI50 values, listed per item
- Tested on: EKVX NSCLC
- assay: NCI tumour cell line growth inhibition, 48 h

[in] Tell me the measured GI50 of CCC(CO)Nc1nc(NCc2ccccc2)c2n[nH]c(C(C)C)c2n1 (stereo not drawn) , please.
[out] 12.1 µM

[in] Tell me the measured GI50 of CCCCCCCC(=O)Nc1nc2[nH]c(CN3CCN(Cc4cccc(I)c4)CC3)c(CN3CCN(Cc4cccc(I)c4)CC3)c2c(=O)[nH]1 , please.
[out] 0.835 µM

* * *

TGI values, listed per item
- System: HL-60(TB) leukemia
- assay: NCI tumour cell line growth inhibition, 48 h

Below are worked cases with known answers.
CCOC(=O)c1ccc(Nc2nc3ccccc3n3cccc23)cc1 ... 0.0169 µM
COc1ccccc1N1C(=O)CSC1c1cccc(Oc2ccccc2)c1 (configuration not stated) ... 72.6 µM
C[n+]1c2ccccc2n2c3ccccc3c(NCc3ccco3)c(C#N)c21 ... 8.69 µM
Cc1cc(C)n(CN(CCCCO)Cn2nc(C)cc2C)n1 ... 79 µM
COc1ccc(CC2Cc3ccccc3CC(=O)N2)cc1OC (configuration not stated) ... > 100 µM

Now, please, on to the next compound.
[in] Tell me the measured TGI of O=C(CSc1nc2ccc(I)cc2c(=O)n1Cc1ccccc1)NNC(=S)Nc1ccccc1 , please.
[out] > 100 µM

* * *

- Tested on: M14 melanoma
- assay: NCI tumour cell line growth inhibition, 48 h
property measured: GI50

Below are worked cases with known answers.
COc1ccc(OC)c(-c2cc(-c3ccc(Cl)cc3)nn2-c2ccccc2)c1 ... 14.8 µM
O=C(N/N=C/c1ccc([N+](=O)[O-])cc1)c1ccccc1Nc1ccnc(C(F)(F)F)c1 ... 19.2 µM
Cn1cnc(SC2=CC(=O)C=C3S[C@H]4C[C@@]23c2c(c(O)c3c5c2=NCCC=5C=N3)N4)c1CC(N)C(=O)O (some centres undefined) ... 15.1 µM
O=C1NN(C(=O)c2ccccc2)C(c2ccc(Cl)c(Cl)c2)=C/C1=C\c1ccccc1[N+](=O)[O-] ... 1.9 µM
COc1nc2c(c(=O)n1C)CN(c1ccccc1)C(=O)CN2C ... 62.6 µM
COc1ccc2c(c1)C(=O)/C(=C/c1ccc(O)cc1)O2 ... 15.3 µM
COc1cc(OCCCN2CCCC2)ccc1Nc1ncc(Cl)c(Nc2ccccc2P(C)(C)=O)n1 ... 2.58 µM
NC(CCl)=NCC12CC3CC(CC(C3)C1)C2 ... 1.32 µM

Now, please, on to the next compound.
[in] Tell me the measured GI50 of CC1(C)CC[C@]2(C(=O)NCCNCCN)CC[C@]3(C)C(=CC[C@@H]4[C@@]5(C)CCC(=O)C(C)(C)[C@@H]5CC[C@]43C)[C@@H]2C1 , please.
[out] 1.87 µM

* * *

- System: NCI-H522 lung
- assay: NCI tumour cell line growth inhibition, 48 h
TGI values, listed per item

[in] Tell me the measured TGI of COC(=O)[C@H](Cc1ccccc1)NC(=O)OCC1OC(n2cc(C)c(=O)[nH]c2=O)CC1N=[N+]=[N-] (stereo not given in full) , please.
[out] > 100 µM

[in] Tell me the measured TGI of CCOC(=O)C(=CNc1ccc(S(N)(=O)=O)cc1)C(=O)OCC , please.
[out] > 100 µM

[in] Tell me the measured TGI of COc1ccc2c(c1)C(=O)c1c-2n(CCCN=[N+]=[N-])c(=O)c2cc([N+](=O)[O-])ccc12 , please.
[out] 0.657 µM

[in] Tell me the measured TGI of Clc1ccc(-c2nnc(-c3nn(-c4ccccc4)c4nc5ccccc5nc34)o2)cc1 , please.
[out] > 100 µM

[in] Tell me the measured TGI of C1=C2C3=[N+](CCCC3)CC2Cc2sccc21 (stereo not given) , please.
[out] > 100 µM
